Recorded Cmax for the following molecules
PROTOCOL_SUMMARY: Pharmacokinetic study in rats (oral gavage and tail vein injection, plasma LC-MS/MS)
Assay type: in vivo
ASSAY_CONDITIONS: rat, in vivo, SD rats, Po, 3 mg/kg, read-out: Cmax

{"MOLECULE": "Cc1nc(-c2nnn(C)c2NC(=O)OC(C)CCCF)ccc1C#CC1(CC(=O)O)CC1 (single isomer, unassigned)", "Cmax": "800 to 5000 ng/mL"}

Fill blank: measured Cmax of the molecule `CCC[C@H](C)OC(=O)Nc1c(-c2ccc(C#CC3(CC(=O)O)CC3)c(C)n2)nnn1C` is ____.
800 to 5000 ng/mL

* * *

PROTOCOL_SUMMARY: Pharmacokinetic study in rats (oral gavage and tail vein injection, plasma LC-MS/MS)
Type: in vivo
ASSAY_CONDITIONS: rat, SD rats, Iv, 1 mg/kg
MEASUREMENT_LABEL: AUC(0-t)

Look over these answered cases.
{"COMPOUND": "CCC(F)(F)[C@@H](C)OC(=O)Nc1c(-c2ccc(C#CC3(CC(=O)O)CC(OC)C3)c(C(F)(F)F)n2)nnn1C (stereo partly shown)", "RESULT_VALUE": "3000 to 5000 ng·h/mL"}
{"COMPOUND": "Cc1nc(-c2nnn(C)c2Nc2cncc(OC(C)C)n2)ccc1C#CC1(CC(=O)O)CC1", "RESULT_VALUE": "1200 to 3000 ng·h/mL"}
{"COMPOUND": "Cc1nc(-c2nnn(C)c2NC(=O)O[C@H](C)CC(C)(F)F)ccc1C#C[C@H]1CCC[C@@H]1C(=O)O (single isomer, unassigned)", "RESULT_VALUE": "5000 to 10000 ng·h/mL"}

# lookup: AUC(0-t) of CCC(F)(F)[C@@H](C)OC(=O)Nc1c(-c2ccc(C#CC3(CC(=O)O)CC(OC)C3)c(C)n2)noc1C (stereo partly shown)
3000 to 5000 ng·h/mL

* * *

TARGET_DESC: hLPAR1 (human lysophosphatidic acid receptor 1, Accession No.: NM_001401.4) (Homo sapiens)
Sequence (Q92633 whole entry): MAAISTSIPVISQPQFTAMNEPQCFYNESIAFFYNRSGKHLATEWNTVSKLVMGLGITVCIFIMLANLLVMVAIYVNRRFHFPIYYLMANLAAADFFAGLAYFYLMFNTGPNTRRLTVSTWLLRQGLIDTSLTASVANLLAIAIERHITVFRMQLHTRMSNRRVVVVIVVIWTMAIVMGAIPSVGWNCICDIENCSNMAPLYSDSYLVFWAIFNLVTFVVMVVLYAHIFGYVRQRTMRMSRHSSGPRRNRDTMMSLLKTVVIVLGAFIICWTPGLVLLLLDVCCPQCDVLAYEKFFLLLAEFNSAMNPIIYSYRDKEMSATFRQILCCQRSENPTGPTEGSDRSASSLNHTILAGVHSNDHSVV
PROTOCOL_SUMMARY: cell-based
ASSAY_CONDITIONS: Table 1; FLIPR method, CHO-K1 cells overexpressing hLPAR1; read-out: LPAR1 inhibitory activity IC50
pIC50 overview
# log scale: pIC50 equals minus log10 of the concentration in mol/L

{"COMPOUND": "CCCc1ccnc(OCc2c(-c3ccc(C#CC4(CC(=O)O)CC4)c(C)n3)nnn2C)n1", "TARGET_DESC": "hLPAR1 (human lysophosphatidic acid receptor 1, Accession No.: NM_001401.4) (Homo sapiens)", "pIC50": 7.58}
{"COMPOUND": "CN(CCCCF)C(=O)OCc1c(-c2ccc(C#CC3(CC(=O)O)CC3)c(C3CC3)n2)nnn1C", "TARGET_DESC": "hLPAR1 (human lysophosphatidic acid receptor 1, Accession No.: NM_001401.4) (Homo sapiens)", "pIC50": 7.04}
{"COMPOUND": "CCCCN(C)C(=O)OCc1c(-c2ccc(C#CC3(CC(=O)O)CC3)c(C)n2)nnn1C", "TARGET_DESC": "hLPAR1 (human lysophosphatidic acid receptor 1, Accession No.: NM_001401.4) (Homo sapiens)", "pIC50": 7.18}
{"COMPOUND": "Cc1nc(-c2nnn(C)c2NC(=O)O[C@H](C)CC(C)(F)F)ccc1C#C[C@@H]1CC[C@H]1C(=O)O (mixture of isomers) [213-B]", "TARGET_DESC": "hLPAR1 (human lysophosphatidic acid receptor 1, Accession No.: NM_001401.4) (Homo sapiens)", "pIC50": 7.43}
{"COMPOUND": "Cc1nc(-c2nnn(C)c2COC(=O)N(C)CC2CCCC2(F)F)ccc1C#CC1(CC(=O)O)CC1 (stereo not shown)", "TARGET_DESC": "hLPAR1 (human lysophosphatidic acid receptor 1, Accession No.: NM_001401.4) (Homo sapiens)", "pIC50": 7.40}
{"COMPOUND": "Cc1nc(-c2nnn(C)c2NC(=O)O[C@H](C)c2ccccc2F)ccc1C#CC1(CC(=O)O)CC1", "TARGET_DESC": "hLPAR1 (human lysophosphatidic acid receptor 1, Accession No.: NM_001401.4) (Homo sapiens)", "pIC50": 8.11}
{"COMPOUND": "Cc1nc(-c2nnn(C)c2NC(=O)OC(C)c2cc(F)cnc2Cl)ccc1C#CC1(CC(=O)O)CC1 (single isomer, unassigned) [023-A]", "TARGET_DESC": "hLPAR1 (human lysophosphatidic acid receptor 1, Accession No.: NM_001401.4) (Homo sapiens)", "pIC50": 7.43}
{"COMPOUND": "Cc1nc(-c2nnn(C)c2NC(=O)OC(C)CC(C)(C)F)ccc1C#CC1CCC1C(=O)O (single isomer, unassigned) [306-B]", "TARGET_DESC": "hLPAR1 (human lysophosphatidic acid receptor 1, Accession No.: NM_001401.4) (Homo sapiens)", "pIC50": 7.27}

Which pIC50 reading was recorded for the compound `CCCCN(C)C(=O)OCc1c(-c2ccc(C#CC3(CC(=O)O)CC3)c(CC)n2)nnn1C` ?
7.35

Look up pIC50 for this compound: Cc1nc(-c2nnn(C)c2COC(=O)N(C)C(C)C2CCC2)ccc1C#CC1(CC(=O)O)CC1 (stereo not shown)
7.86

If you can, please state the reported pIC50 value of `CCC(F)(F)[C@@H](C)OC(=O)Nc1c(-c2ccc(C#CC3(CC(=O)O)CC3)c(C)n2)nnn1C` .
7.69

Entry `Cc1nc(-c2nnn(C)c2COc2nccc(C3CCC3)n2)ccc1C#CC1(CC(=O)O)CC1` has what pIC50?
7.37

Field request: pIC50 | item: Cc1nc(-c2nnn(C)c2NC(=O)O[C@H](C)c2ccccc2F)ccc1C#C[C@@H]1CCCC[C@H]1C(=O)O (mixture of isomers) [028-B]
7.22

If you can, please state the reported pIC50 value of Cc1nc(-c2nnn(C)c2NC(=O)O[C@H](C)CC2CC2)ccc1C#C[C@@H]1CC(F)(F)C[C@H]1C(=O)O (mixture of isomers) .
8.51

# pIC50 lookup, item CCCC(C)OC(=O)Nc1c(-c2ccc(C#CC3(CC(=O)O)CC3)c(C)n2)nnn1C (stereo not shown)
7.25

Need pIC50 of `CCC(F)(F)C[C@@H](C)OC(=O)Nc1c(-c2ccc(C#CC3(CC(=O)O)CC3)c(C)n2)nnn1C` , thanks.
7.33

Quick one: pIC50 of `Cc1nc(-c2nnn(C)c2NC(=O)O[C@H](C)C(F)(F)C(C)C)ccc1C#C[C@@H]1CC[C@H]1C(=O)O` ?
6.82

Reported pIC50 for Cc1nc(-c2nnn(C)c2NC(=O)O[C@H](C)CC(C)(C)F)ccc1C#C[C@@H]1CCC[C@H]1C(=O)O (mixture of isomers) [244-A] : what is it?
7.70

What value of pIC50 has been recorded for this entry: `Cc1nc(-c2nnn(C)c2COc2nccc(C3CC(F)(F)C3)n2)ccc1C#CC1(CC(=O)O)CC1`
7.63
